These measurements were taken from patent US20100172907A1.

Kindly supply the reported Peptide-ratio 18-23/2-7 values for the records listed here.
Molecular target: T1, BSA-conjugated Aβ heptapeptide VFFAEDC (C-terminal Cys coupled to NSMP-activated BSA);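 note: ELISA of antibody at 10 or 2 µg/ml binding plate-coated BSA–peptide conjugates, detected with HRP anti-human Ig and TMB colour, mock-treated BSA without peptide as negative control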
T1 construct: also called Peptide 18-23
T1 peptide: VFFAEDC
Assay: ELISA

- BINDER: "MS-Roche #7.2.H1 Fab (Fab, V domains shown) VH: QVQLVESGGGLVQPGGSLRLSCAASGFTFSSYAMSWVRQAPGKGLEWVSAINANGLKKYYADSVKGRFTISRDNSKNTLYLQMNSLRAEDTAVYYCARGKGNTHKPYGYVRYFDVWGQGTLVTVSS VL: DIVLTQSPATLSLSPGERATLSCRASQSVSSSYLAWYQQKPGQAPRLLIYGASSRATGVPARFSGSGSGTDFTLTISSLEPEDFATYYCQQIYSFPHTFGQGTKVEIKR"
  MEASUREMENT_LABEL: "Peptide-ratio 18-23/2-7"
  REPORTED_RESULT: 0.29

Task: Tell us which Peptide-ratio 18-23/2-7 value is on record for MS-Roche #7.2.H3 Fab (Fab, V domains shown) VH: QVQLVESGGGLVQPGGSLRLSCAASGFTFSSYAMSWVRQAPGKGLEWVSAINANGYKTYYADSVKGRFTISRDNSKNTLYLQMNSLRAEDTAVYYCARGKGNTHKPYGYVRYFDVWGQGTLVTVSS VL: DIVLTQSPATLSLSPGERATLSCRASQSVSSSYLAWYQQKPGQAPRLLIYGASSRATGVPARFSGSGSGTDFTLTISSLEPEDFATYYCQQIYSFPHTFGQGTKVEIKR
Output: 0.61
